Origin of the recorded values: PubChem BioAssay

Target: Streptavidin (Streptomyces avidinii)
Assay: streptavidin binders on small-molecule microarray, primary screen, artefact control for SMM compound annotation, biophysical, 635/667 nm fluorescence (AID 1147);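 also: signal reflects streptavidin binding to arrayed compounds as a control protein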
Settings: streptavidin binding, higher = more signal
composite z-score overview
recordedEndpoint: composite z-score

compound	endpointValue
CO[C@H]1O[C@H](CO)[C@@H](OC(=O)CCc2ccccc2)[C@@H]2OC(=O)[C@H](Cc3cccc(Br)c3)C/C=C/C[C@@H](Cc3cccc(Br)c3)C(=O)O[C@@H]12	-0.115
[N-]=[N+]=NCc1ccccc1C[C@]1(C(=O)N2CCCCC2)N=C(c2ccc(OCCCO)cc2)O[C@H]1c1ccccc1CN=[N+]=[N-]	0.995
CCCC=C(CCC)[C@@H](NS(=O)(=O)c1ccc(-c2ccccc2)cc1)c1ccc(C(=O)OC)cc1	0.111
CN1C(=O)C2C=CC(C(O)c3ccc(N(C)C)cc3)N(Nc3ccc([N+](=O)[O-])cc3[N+](=O)[O-])C2C1=O (stereo not given)	1.51
CCOC(=O)C[C@H]1[C@H](OC(=O)c2cc3ccccc3oc2=O)[C@@H](NC(=O)C2CCCCC2)c2cc(OCCCO)ccc2N1C(=O)c1ccc2ccccc2n1	0.449
COCCOC(=O)N1C(=O)[C@@]2(c3cc(C#CCNC(N)=O)ccc31)[C@H](c1ccc(OCCO)cc1)N1[C@H](c3ccccc3)[C@H](c3ccccc3)OC(=O)[C@H]1[C@@H]2C(=O)N1CCCCCCC1	0.34
C/C(=N\O)C(=O)NCCCCCNC(=O)OCc1ccccc1	1.24
Cc1ccc(S[C@]2(C(=O)O)CC(=O)N(Cc3cc(C(F)(F)F)cc(C(F)(F)F)c3)[C@@H]2c2ccc(CO)cc2I)cc1	-0.718
CO[C@H]1COC(=O)[C@H](CCSC)NC(=O)CC=C[C@@H](C)COC(=O)[C@@H](OCc2ccccc2)C=C[C@@H]1C	-0.154
O=C(O)[C@@H]1Cc2c([nH]c3ccccc23)[C@@H](c2ccccc2)N1	0.29
COc1ccc([Si](C)(C)[C@H]2[C@H](CC(=O)N(CCO)Cc3ccccc3)O[C@@]3(C(=O)N(C)c4ccccc43)[C@@H]2C)cc1	0.153
CCCC[C@@H]1C[C@H]1[C@@H](NC(=O)c1cccs1)c1ccc(Cl)cc1	-1.05
COC(=O)c1ccc(C#CC(NP(=O)(c2ccccc2)c2ccccc2)c2ccccc2)cc1 (stereo not given)	2.13
COC(=O)[C@H]1[C@@H]2COc3ccccc3[C@H]2N[C@H]1C(=O)OC	-0.142
NC(=O)NCC#Cc1ccc2c(c1)[C@]1(C(=O)N2)[C@H](C(N)=O)[C@H]2C(=O)O[C@H](c3ccccc3)[C@H](c3ccccc3)N2[C@@H]1c1ccccc1OCCO	0.28
